Target: PDE1C (Homo sapiens, UniProt Q14123)
Sequence (Q14123 whole entry): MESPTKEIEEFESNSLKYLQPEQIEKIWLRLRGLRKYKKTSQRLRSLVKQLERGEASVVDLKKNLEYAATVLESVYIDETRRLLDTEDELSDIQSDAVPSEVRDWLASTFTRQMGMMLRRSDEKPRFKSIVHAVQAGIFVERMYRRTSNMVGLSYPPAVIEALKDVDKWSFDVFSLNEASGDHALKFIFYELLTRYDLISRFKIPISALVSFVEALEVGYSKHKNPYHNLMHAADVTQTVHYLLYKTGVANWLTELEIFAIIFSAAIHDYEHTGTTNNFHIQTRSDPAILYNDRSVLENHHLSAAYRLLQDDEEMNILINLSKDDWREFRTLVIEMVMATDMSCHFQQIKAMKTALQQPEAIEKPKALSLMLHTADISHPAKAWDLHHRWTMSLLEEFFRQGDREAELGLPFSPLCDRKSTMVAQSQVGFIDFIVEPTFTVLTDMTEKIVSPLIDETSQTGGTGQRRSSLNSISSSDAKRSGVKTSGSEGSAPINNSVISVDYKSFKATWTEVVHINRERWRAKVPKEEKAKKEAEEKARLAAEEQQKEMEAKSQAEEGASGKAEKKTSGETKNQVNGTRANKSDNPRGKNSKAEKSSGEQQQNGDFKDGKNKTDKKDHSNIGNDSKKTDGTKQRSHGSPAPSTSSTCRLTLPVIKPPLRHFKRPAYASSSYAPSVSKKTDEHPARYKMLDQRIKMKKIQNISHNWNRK
pIC50: −log10 of the molar value.
Output: class label from pIC50. Mapping: bottom: < 6; middle: ≥ 6 and < 7; top: ≥ 7

Please report the category associated with COc1ccc2c(N(C)C3(C)CCOC3C)ncnc2c1OC (single isomer, unassigned) [20 Stereoisomer 2] , nothing else.
top

Each compound maps to one class by pIC50. Which class for "COc1ccc2c(N(CC3CC3)[C@H]3CCOC3)ncnc2c1OC" ?
bottom

Lab note: sort COc1ccc2c(NC3(C)CCOC3)ncnc2c1OC (single isomer, unassigned) [6 Stereoisomer 1] into the matching pIC50 band.
middle

Just checking, what class would you give "CCN(c1ncnc2c(OC)c(OC)ccc12)[C@H]1CCOC1" here?
middle

Could you tell me which band "CCCN(c1ncnc2c(OC)c(OC)ccc12)[C@@H]1CCOC1" belongs to?
middle

Class (by measured pIC50) for COc1ccc2c(N(C)C3(C)CCOC3C)ncnc2c1OC (single isomer, unassigned) [20 Stereoisomer 4]
middle

Exam item: assign COc1ccc2c(NC3CCOC3C)ncnc2c1OC (single isomer, unassigned) [3 Stereoisomer 2] to the correct category.
middle

Which class is correct for the following compound? "COc1ccc2c(N(CC3CC3)[C@@H]3CCOC3)ncnc2c1OC"
bottom

Sort into band: COc1ccc2c(N(C)C3CCOC3C)ncnc2c1OC (single isomer, unassigned) [22 Stereoisomer 2]
top
